// data source = ChEMBL document CHEMBL1201862

# Tested on: HCT-116
# assay-explanation: NCI tumour cell line growth inhibition, 48 h
Activity calls are given as the source filed them. No stated cut-off is given here; in the data, active = GI50 up to about 1.1 µM and inactive = higher. Non-standard residues stand in square brackets, D forms with d. Residues, ends and D or L forms follow the SMILES beside them. *: point of attachment. Phe(4-NO2) = N[CH](Cc1ccc([N+](=O)[O-])cc1)C(=O)O; Boc = CC(C)(C)OC(=O)*
Outcome codes: T (active), F (inactive)

compound="C=C1C(=O)O[C@@H]2[C@H]1C[C@@H](O)[C@H](C)[C@@](O)(C(=O)/C=C/C)[C@H]2OC(=O)C(C)CC (some centres not stated)" test_target=HCT-116 label=F
compound=Cc1cc(N=C2C=C(Br)C(=O)C(Br)=C2)cc(CN(CC(=O)O)CC(=O)O)c1O test_target=HCT-116 label=F
compound="COc1cc(/C=C2\\NC(=S)C3Cc4c(OC)c(C)c(OC)c(OC)c4C2N3C)c(OC)c(C)c1OC (configuration not stated)" test_target=HCT-116 label=F
compound=Cc1cc(O)nc2cc3oc4ccccc4c3cc12 test_target=HCT-116 label=F
compound=COc1cc2oc(-c3ccc4c(c3)OCO4)c(OC)c(=O)c2c(OC)c1OC test_target=HCT-116 label=F
compound=CCOC(=O)c1cc(Br)c(-c2cc(C)co2)[nH]1 test_target=HCT-116 label=F
compound=Fc1c(F)c(C(F)(F)F)c(F)c(F)c1N/N=C\c1c[nH]c2ccccc12 test_target=HCT-116 label=F
compound=O=C1Cc2c([nH]c3ccc(Cl)cc23)-c2ccccc2N1 test_target=HCT-116 label=F
compound="CCOC(=O)C1Cc2[nH]c3ccccc3c2C(C)C1C (configuration not stated)" test_target=HCT-116 label=F
compound=COc1ccccc1/C=N/C12CC3CC(CC(C3)C1)C2 test_target=HCT-116 label=F
compound=COc1cc2c(/C=C3/C(=O)N(C)c4ccccc43)c(Cl)[nH]c2cc1C test_target=HCT-116 label=T
compound=O=C(O)C(Sc1ccc(Cl)cc1)Sc1ccc(Cl)cc1 test_target=HCT-116 label=F
compound=CC(C)=C[C@H]1CCC2(OCCO2)[C@]1(C)COCc1ccccc1 test_target=HCT-116 label=F
compound=Cc1nnc2sc(Cl)nn12 test_target=HCT-116 label=F
compound=CCOC(=O)c1c(-c2ccccc2)c(OC)cn1C test_target=HCT-116 label=F
compound=COc1cc(CNC(=O)[C@H](Cc2ccc(O)cn2)NC(C)=O)cc(OC)c1 test_target=HCT-116 label=F
compound="N=C(N)Nc1ccc(CC(N)NCC(=O)O)cc1 (configuration not stated)" test_target=HCT-116 label=F
compound=C=C1C[C@@H]2O[C@H]3[C@H]4[C@@H](C[C@@H](C)[C@@H](OC(C)=O)[C@H]42)[C@@H](C)CO[C@@]3(C)[C@H](OC(=O)CCCCCCC)C[C@H]1O test_target=HCT-116 label=F
compound=O=C(O)Cc1cccc2c(=O)c3cccc([N+](=O)[O-])c3oc12 test_target=HCT-116 label=F
compound="COC(=O)/C=C/c1ccc2c(c1)CC1(C2)Cc2cc3c(cc2C1=O)CCC3 (configuration not stated)" test_target=HCT-116 label=F
compound=Cc1ccc(/C=C2\N=C(N3CCCCC3)NC2=O)cc1 test_target=HCT-116 label=F
compound=COc1ccc(N2C(=O)c3cc([N+](=O)[O-])cnc3S2(=O)=O)cc1 test_target=HCT-116 label=F
compound=N#Cc1nc(Cc2cccs2)oc1N test_target=HCT-116 label=F
compound=O=C1CC(=O)N(c2ccccc2)N1/C(=C/c1ccccc1)c1ccccc1 test_target=HCT-116 label=F
compound="COC(=O)C1CN=CN1CCc1ccccc1 (configuration not stated)" test_target=HCT-116 label=F
compound="O=C(c1ccccc1)[C@H]1Nc2ccc(Cl)cc2C2c3ccccc3CC21 (some centres not stated)" test_target=HCT-116 label=F
compound=Cc1nc(C(N)=S)sc1C(=O)CC(=O)C(=O)Nc1ccc(Br)cc1 test_target=HCT-116 label=F
compound=CN1CCCN2CCN(C)CCN(CC1)CC2 test_target=HCT-116 label=F
compound=CCCCCCc1ccc(C(=O)NO)cc1 test_target=HCT-116 label=F
compound=CCOc1cc(NC(C)=O)ccc1C(=O)N/N=C/c1ccco1 test_target=HCT-116 label=F
compound="CC(C)C1NC(=O)[C@H](C)OC(=O)[C@@H](C(C)C)NC(=O)[C@@H](C)OC(=O)C(C(C)C)NC(=O)[C@H](C)OC1=O (some centres not stated)" test_target=HCT-116 label=F
compound=c1nc2nc[nH]c(SSc3[nH]cnc4ncnc3-4)c-2n1 test_target=HCT-116 label=T
compound=COc1cc2c[n+](C)c3c4cc(OC)c(OC)cc4c(OCc4ccccc4)cc3c2cc1OC test_target=HCT-116 label=T
compound="N#CC(C(=O)CCC(=O)Nc1ccc(Cl)c(Cl)c1)c1ccccc1 (configuration not stated)" test_target=HCT-116 label=F
compound="COc1ccc(/N=N/C(=O)NC(CC(C)C)C(=O)NC(CC(C)C)C(=O)O)cc1 (configuration not stated)" test_target=HCT-116 label=F
compound=COc1ccc(OC)c2c(C(=O)O)c(Cc3ccccc3)ccc12 test_target=HCT-116 label=F
compound="COC(=O)CCC(NC(=O)OC(C)(C)C)C(=O)NC(Cc1ccc([N+](=O)[O-])cc1)C(=O)NC(CCC(=O)OC)C(=O)OC (configuration not stated) (Boc-Glu(OMe)-[Phe(4-NO2)]-Glu(OMe)-OMe; configuration not given here)" test_target=HCT-116 label=F
compound=CN(C)CCC(CCN(C)C)=NO test_target=HCT-116 label=F
compound=Nc1ccc2c(c1)CC1c3ccccc3C(C2)c2ccccc21 test_target=HCT-116 label=F
compound=CN(C)c1ccc(C=C2N=C(c3ccccc3)N(c3cc(C(=O)c4ccccc4)ccc3N3C(=O)/C(=C/c4ccc(N(C)C)cc4)N=C3c3ccccc3)C2=O)cc1 test_target=HCT-116 label=F
compound=CN(c1c(Cl)cccc1Cl)S(=O)(=O)c1ccccc1[N+](=O)[O-] test_target=HCT-116 label=F
compound="O=C1Nc2ccccc2C1Cc1ccccc1 (configuration not stated)" test_target=HCT-116 label=F

---

# Tested on: DLD-1
# assay-explanation: NCI tumour cell line growth inhibition, 48 h
Calls of active or inactive are those of the source. No stated cut-off is given here; in the data, active = GI50 up to about 1.1 µM and inactive = higher.
Listed here: items and their measured GI50.
measured-parameter: GI50

molecule=Cc1nc2c(o1)/C(=N\c1ccccc1)c1nc(C)oc1/C2=N/c1ccccc1 measured_parameter=GI50 observed_result="25.5 µM (inactive)"
molecule=CN1C/C(=C\C=C\c2ccccc2)C(=O)/C(=C/C=C/c2ccccc2)C1 measured_parameter=GI50 observed_result="> 100 µM (inactive)"
molecule="O=C(O)CC(O)(c1ccccc1C(=O)O)c1cccc2ccccc12 (stereo not drawn)" measured_parameter=GI50 observed_result="> 100 µM (inactive)"

---

# System: SK-OV-3
# assay-explanation: NCI tumour cell line growth inhibition, 48 h
Calls of active or inactive are those of the source. No stated cut-off is given here; in the data, active = GI50 up to about 1.1 µM and inactive = higher.
Outcome codes: label 1 for active, label 0 for inactive

compound=Cc1c2cccc-2c(N(C)C)cc2c1[nH]c1ccccc12 label="label 0"
compound=CC1=C/C(=C2/N=C(N(C)C)SS2)C(C)=N1.[O-][Cl+3]([O-])([O-])O label="label 0"
compound="O=C(O)C(CS)Nc1c2ccccc2[n+]([O-])c2ccccc12 (stereo unspecified)" label="label 0"
compound=N=C(N)N/N=C(\c1ccc(F)cc1)c1ccc(C(F)(F)F)cc1 label="label 1"
compound="COc1cc2c(cc1O)[C@H](C)C(c1ccccc1OC)O2 (stereo partly specified)" label="label 0"
compound=CCOC(=O)c1nnsc1N/N=C\c1ccc([N+](=O)[O-])cc1 label="label 0"

---

# Test system: NCI-H460
# assay-explanation: NCI tumour cell line growth inhibition, 48 h
Activity calls are given as the source filed them. No stated cut-off is given here; in the data, active = GI50 up to about 1.1 µM and inactive = higher.
measured-parameter: GI50

molecule=O=C(/C=C/c1ccc(O)c(O)c1)OCCCc1ccccc1 test_target=NCI-H460 measured_parameter=GI50 observed_result="20.2 µM (inactive)"
molecule="COc1cc(/C=C2/SC(c3ccccc3)N(Cc3ccccc3)C2=O)cc(OC)c1OC (centres undefined)" test_target=NCI-H460 measured_parameter=GI50 observed_result="38.2 µM (inactive)"
molecule=COc1cc(-c2cc(=O)c3cc(C)c(C)c(C(=O)O)c3o2)cc(OC)c1OC test_target=NCI-H460 measured_parameter=GI50 observed_result="> 100 µM (inactive)"
molecule=O=C(O)c1ccccc1Cc1ccco1 test_target=NCI-H460 measured_parameter=GI50 observed_result="> 100 µM (inactive)"
molecule=CCN1C(=O)/C(=C\c2coc3ccccc3c2=O)SC1=S test_target=NCI-H460 measured_parameter=GI50 observed_result="> 100 µM (inactive)"
molecule=O=C(COc1ccc(OCC(=O)N2C(=O)CN(c3ccccc3)C2=S)cc1)N1C(=O)CN(c2ccccc2)C1=S test_target=NCI-H460 measured_parameter=GI50 observed_result="> 57.7 µM (inactive)"
molecule="CC(C)CC(NC(=O)OC(C)(C)C)C(=O)Nc1ccc(Nc2nc(F)nc(-c3c4ccccc4c4n3CCS4)n2)cc1 (centres undefined)" test_target=NCI-H460 measured_parameter=GI50 observed_result="14.8 µM (inactive)"
molecule=C[C@H](CCC(=O)NCCS(=O)(=O)O)[C@H]1CC[C@H]2[C@@H]3[C@H](O)C[C@@H]4C[C@H](O)CC[C@]4(C)[C@H]3CC[C@]12C test_target=NCI-H460 measured_parameter=GI50 observed_result="> 100 µM (inactive)"
molecule="COC(=O)[C@H](Cc1c[nH]c2ccccc12)NC(=O)OCC1OC(n2cc(C)c(=O)[nH]c2=O)CC1N=[N+]=[N-] (some centres undefined)" test_target=NCI-H460 measured_parameter=GI50 observed_result="49.4 µM (inactive)"
